growth inhibition by entry:
- measurement protocol: NCI Yeast Anticancer Drug Screen. Data for the sgs1 mgt1 strain (AID 161);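 note: 0% = growth of cultures given vehicle only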
- condition summary: S. cerevisiae sgs1 mgt1 strain, at 50.0 µM, hits give high values
- Experimental: Growth inhibition of yeast strains with defined genetic alterations is measured as a screen for potential anti-cancer activity. Selected strains with alterations in DNA damage repair or cell cycle control were exposed to compounds and growth inhibition was measured relative to vehicle treated controls. The strain used in this assay is sgs1 mgt1
The panel holds about 79,000 compounds, 15% with a hit somewhere; the sample as a whole holds those more often.
test readout: growth inhibition (%)

INSERT INTO assay_data (compound, unit, result_value) VALUES
  ('O=C(c1ccccc1)c1ccc(O)c2ncccc12', '%', 99),
  ('CCCCCCCCCCCCSC(=N)N', '%', 46.5),
  ('CC1(C)OCC(COC(c2ccccc2)(c2ccccc2)c2ccccc2)O1 (stereo unspecified)', '%', -0.5),
  ('CN(Cc1ccccc1)c1ccc(SC#N)cc1', '%', 79.5),
  ('CN=C(N)N/N=C(\C)c1ccc2c(c1)Cc1ccccc1-2', '%', 84.2),
  ('COC1CC(C)C(OC)c2cc(O)cc(c2O)NC(=O)/C(C)=C/C=C\C(C)C(OC(N)=O)/C(C)=C\C(C)C1OC (stereo unspecified)', '%', 91.3);

Data provenance: PubChem BioAssay (NCI)
